These data points were gathered from the supplement of paper PMC6555819.

- Tested on: PPARg:RXRa DBDmut IVT, anti-RXR (DBD mutation: RXRa K156A/R161A, NR concentration 270 nM, RXRa partner concentration 90 nM)
- Procedure Details: PBM binding z-score (relative to random genomic background probes); higher = stronger binding; sequences stand for … in GC…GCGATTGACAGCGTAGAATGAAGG
Test Readout: PBM binding z-score
I'd appreciate a reply containing only the number, no unit.

CCTATTAGTTGACCATACGGGCAACCGAAGCTCG ... 0.407
TCTGCCAGGTCAACGATGGTCAGCTAATCTGCTA ... 2.07
TCTCGGAGGACACGGAGGTCAGAGCTTTCCAGAG ... 1.26
CCTCGGAGGACAACAGGAGCTCAGAGCTGCCAGA ... 0.0652

Exercise: Which value of PBM binding z-score has been reported for GGAACGAGGGCATTCGAGTTGATTGCATGGCGAT in the records?
Solution: 2.85

Exercise: Which value of PBM binding z-score has been reported for CCGCCTGGGGCATAAGGTTACCATAAGCCAGCCC in the records?
Solution: -0.446

----------
- System: RXRa DBDmut IVT, anti-RXR (DBD mutation: RXRa K156A/R161A, NR concentration 90 nM)
- Procedure Details: PBM binding z-score (relative to random genomic background probes); higher = stronger binding; sequences stand for … in GC…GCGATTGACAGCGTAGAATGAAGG
Okay, here is how we bin by PBM binding z-score: range 1: < 0.3; range 2: ≥ 0.3 and < 1; range 3: ≥ 1

Exercise: Would you mind sorting TCATATAGGTAAAGGAGAAAGTCGAACGATATGA into the appropriate category?
Solution: range 2

----------
- Test system: RARa:RXR (NR concentration 270 nM, RXRa partner concentration 90 nM)
- Procedure Details: PBM binding z-score (relative to random genomic background probes); higher = stronger binding; sequences stand for … in GC…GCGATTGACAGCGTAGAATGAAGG
Test Readout: PBM binding z-score
I'd appreciate a reply containing only the number, no unit.

Below, each entry is followed by its recorded PBM binding z-score result.
TCTTGTAGATCAATAGAGGTTATGAAAGTGCGCT ... 2.04
GCGACTGGGGCATCACCAGGTTACCATAACTTAA ... 0.695
TTACCAAGGTGAAAGGTCTTTGATGCACGCCTTG ... 1.96

API: the following record is the query input.
Exercise: Which value of PBM binding z-score has been reported for AGAATGAGGTTATTCAGATCAGGGAATTGCGGTC in the records?
Solution: 1.98

----------
- System: PPARg:RXRa IVT, anti-PPARg (NR concentration 270 nM, RXRa partner concentration 90 nM)
- Procedure Details: PBM binding z-score (relative to random genomic background probes); higher = stronger binding; sequences stand for … in GC…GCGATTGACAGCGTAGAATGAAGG
Entry flag: 1 if PBM binding z-score reaches 3; 0 if it does not.

Worked set:
TCATATAGGTAAAAGCTAGGTGAAAGTCCGATCT ... 0
TCTTATAGGTAAATGCTAGGTGAAAGTCCGATCT ... 0
ATCTCTAGGTAAAGTTCCGTGAAAGATCGATAGA ... 0
AGAACGAGGCCAATGAGTTGATAGCACGGGTGGC ... 0

Here's the next entry for you.
Exercise: PBM binding z-score >= 3 for GCGACTGGGGCATCAACAGGTTACCATAACTTAA ?
Solution: 1
